All figures here come from patent US8501955B2.

Below is a list of entries, each paired with its recorded log10 EC50 value.
Biological target: purified human recombinant GK (Homo sapiens)
Sequence (P35557 whole entry): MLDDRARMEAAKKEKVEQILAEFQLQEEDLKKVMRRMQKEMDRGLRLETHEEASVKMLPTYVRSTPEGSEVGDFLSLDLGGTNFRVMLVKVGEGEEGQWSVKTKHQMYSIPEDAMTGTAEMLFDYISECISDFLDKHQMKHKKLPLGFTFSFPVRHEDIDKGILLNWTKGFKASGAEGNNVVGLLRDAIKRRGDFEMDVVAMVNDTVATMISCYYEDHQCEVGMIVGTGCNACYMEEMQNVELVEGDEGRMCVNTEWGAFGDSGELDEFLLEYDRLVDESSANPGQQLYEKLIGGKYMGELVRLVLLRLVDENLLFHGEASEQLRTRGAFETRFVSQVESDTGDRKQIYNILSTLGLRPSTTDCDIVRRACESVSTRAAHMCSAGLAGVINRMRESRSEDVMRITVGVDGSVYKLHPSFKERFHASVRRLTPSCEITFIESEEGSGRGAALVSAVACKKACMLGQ
Assay: Glucokinase activity assay (coupled enzymatic GK/G6PD assay, NADH absorbance at 340 nm)
Settings: EC50 of % change in S0.5 of glucokinase for glucose, sigmoidal fit; read-out: EC50 (with respect to % ΔS0.5)
Use the decimal logarithm of EC50 (nM).

Check out these entries, answers already filled in.
O=C(O)Cc1csc(NC(=O)C(Oc2ccc(F)cc2F)c2ccc(S(=O)(=O)C3CC3)cc2)n1 (single isomer, unassigned; (-)) [Example E3] = 3.37
CC(C)Oc1ccc2nc(NC(=O)C(OC3CCOCC3)c3ccc(S(=O)(=O)C4CC4)cc3)sc2n1 (centres unmarked) = 2.38
O=C(Nc1ncc(F)s1)C(Oc1ccc(Cl)cc1F)c1ccc(S(=O)(=O)C2CC2)cc1 (centres unmarked) = 2.08
O=C(Nc1nncs1)C(Oc1ccc(F)cc1F)c1ccc(S(=O)(=O)C2CC2)cc1 (centres unmarked) = 3.85
O=C(O)Cc1nc(NC(=O)C(Oc2ccc(F)cc2F)c2ccc(S(=O)(=O)C3CCCC3)cc2)sc1Cl (single isomer, unassigned; (+)) [Example F2] = 2.83
O=C(O)Cc1nc(NC(=O)C(Oc2ccc(F)cc2F)c2ccc(S(=O)(=O)C3CCCCC3)cc2)sc1Cl (centres unmarked) = 2.83
O=C(O)Cc1nc(NC(=O)C(Oc2ccc(F)cc2F)c2ccc(S(=O)(=O)C3CC3)cc2)sc1Cl (single isomer, unassigned; (+)) [Example F1] = 3.10
O=C(O)Cc1ccc(Oc2cnc(NC(=O)C(OC3CCOCC3)c3ccc(S(=O)(=O)C4CC4)cc3)s2)cc1 (centres unmarked) = 2.34
O=C(Nc1ncc(F)s1)C(Oc1ccc(F)cc1F)c1ccc(S(=O)(=O)C2CCCC2)cc1 (centres unmarked) = 2.04
O=C(Nc1ncc(Cl)s1)C(Oc1ccc(F)cc1F)c1ccc(S(=O)(=O)C2CC2)cc1 (centres unmarked) = 2.11

Which log10 EC50 value belongs to O=C(O)Cc1nc(NC(=O)C(Oc2ccc(F)cc2F)c2ccc(S(=O)(=O)C3CC3)cc2)sc1Cl (single isomer, unassigned; (-)) [Example E1] ? 3.19

Also O=C(O)c1cccc(Oc2cnc(NC(=O)C(OC3CCOCC3)c3ccc(S(=O)(=O)C4CC4)cc3)s2)c1 (centres unmarked) ? 2.23

Also O=C(O)Cc1csc(NC(=O)C(Oc2ccc(F)cc2F)c2ccc(S(=O)(=O)C3CCCC3)cc2)n1 (centres unmarked) ? 3.20

* * *

Target: purified human recombinant GK (Homo sapiens)
Assay: Glucokinase activity assay (coupled enzymatic GK/G6PD assay, NADH absorbance at 340 nm)
Assay type: biochemical
Settings: Emax of % change in S0.5; vehicle S0.5 = 0%, 0 mM glucose = 100%; read-out: % Emax (with respect to % ΔS0.5)
Source text: The glucokinase (GK) assay is a coupled enzymatic assay. GK catalyzes the first step of glycolysis, the conversion of glucose to glucose-6-phosphate (G6P) in the presence of ATP. G6P in turn is converted by glucose-6-phosphate dehydrogenase (G6PD) to 6-phosphogluconate, a process that requires NAD, resulting in NADH formation. […] The rate of the GK-catalyzed reaction can therefore be measured by monitoring the increase in NADH absorbance at 340 nm. […]
OBSERVABLE: Emax

Check out these entries, answers already filled in.
O=C(O)Cc1nc(NC(=O)C(Oc2ccc(F)cc2F)c2ccc(S(=O)(=O)C3CCCC3)cc2)sc1Cl (single isomer, unassigned; (-)) [Example E2] = 95%
O=C(O)c1cccc(Oc2cnc(NC(=O)C(OC3CCOCC3)c3ccc(S(=O)(=O)C4CC4)cc3)s2)c1 (centres unmarked) = 91%
O=C(Nc1ncc(Oc2ccc(C(=O)N3CCC3)cc2)s1)C(OC1CCOCC1)c1ccc(S(=O)(=O)C2CC2)cc1 (centres unmarked) = 90%
O=C(O)Cc1nc(NC(=O)C(Oc2ccc(F)cc2F)c2ccc(S(=O)(=O)N3CCCCC3)cc2)sc1Cl (single isomer, unassigned; (-)) = 90%

# next compound below
Which Emax value belongs to O=C(Nc1nccs1)C(Oc1ccc(Cl)cc1)c1ccc(S(=O)(=O)C2CCCC2)cc1 (centres unmarked) ? 90%

* * *

Molecular target: purified human recombinant GK (Homo sapiens)
Assay: Glucokinase activity assay (coupled enzymatic GK/G6PD assay, NADH absorbance at 340 nm)
Assay type: biochemical
Conditions: Emax of % change in S0.5; vehicle S0.5 = 0%, 0 mM glucose = 100%; read-out: % Emax (with respect to % ΔS0.5)
Below is a list of entries, each paired with its recorded Emax value.
Could you kindly put the unit after your number?

Check out these entries, answers already filled in.
O=C(Nc1nccs1)C(Oc1ccc(F)cc1F)c1ccc(S(=O)(=O)C2CCCC2)cc1 (stereo not shown) = 95%
O=C(O)Cc1nc(NC(=O)C(Oc2ccc(Cl)cc2)c2ccc(S(=O)(=O)C3CC3)cc2)sc1Cl (stereo not shown) = 90%
NC(=O)c1cccc(Oc2cnc(NC(=O)C(Oc3ccc(F)cc3F)c3ccc(S(=O)(=O)C4CC4)cc3)s2)c1 (stereo not shown) = 90%

// fetch purified human recombinant GK (Homo sapiens) Emax for COc1cnc(NC(=O)C(Oc2ccc(F)cc2F)c2ccc(S(=O)(=O)C3CC3)cc2)s1 (stereo not shown) 93%

* * *

Biological target: purified human recombinant GK (Homo sapiens)
Test: Glucokinase activity assay (coupled enzymatic GK/G6PD assay, NADH absorbance at 340 nm)
Type: biochemical
Conditions: Emax of % change in S0.5; vehicle S0.5 = 0%, 0 mM glucose = 100%; read-out: % Emax (with respect to % ΔS0.5)
OBSERVABLE: Emax (%)
Number only, in %; omit the unit.

Check out these entries, answers already filled in.
O=C(Nc1ncc(F)s1)C(Oc1ccc2[nH]ccc2c1)c1ccc(S(=O)(=O)C2CC2)cc1 (stereo not shown) = 90
O=C(O)Cc1nc(NC(=O)C(Oc2ccc(F)cc2F)c2ccc(S(=O)(=O)C3CC3)cc2)sc1Cl (single isomer, unassigned; (-)) [Example E1] = 95
O=C(O)Cc1nc(NC(=O)C(Oc2ccc3[nH]ccc3c2)c2ccc(S(=O)(=O)C3CC3)cc2)sc1Cl (stereo not shown) = 95
CC(=O)Nc1cccc(OC(C(=O)Nc2nc(CC(=O)O)c(Cl)s2)c2ccc(S(=O)(=O)C3CC3)cc2)c1 (stereo not shown) = 90
O=C(O)Cc1nc(NC(=O)C(Oc2ccc(F)cc2F)c2ccc(S(=O)(=O)C3CCCCC3)cc2)sc1Cl (stereo not shown) = 95

// fetch purified human recombinant GK (Homo sapiens) Emax for O=C(Nc1cnccn1)C(Oc1ccc(Cl)cc1F)c1ccc(S(=O)(=O)C2CC2)cc1 (stereo not shown) 90

Also O=C(O)Cc1csc(NC(=O)C(Oc2ccc(F)cc2F)c2ccc(S(=O)(=O)C3CC3)cc2)n1 (single isomer, unassigned; (-)) ? 90

* * *

Target: purified human recombinant GK (Homo sapiens)
Experiment: Glucokinase activity assay (coupled enzymatic GK/G6PD assay, NADH absorbance at 340 nm)
Details: EC50 of % change in S0.5 of glucokinase for glucose, sigmoidal fit; read-out: EC50 (with respect to % ΔS0.5)
Below is a list of entries, each paired with its recorded log10 of EC50 value.
Use the decimal logarithm of EC50 (nM).

Check out these entries, answers already filled in.
O=C(Nc1ccc(Cl)cn1)C(Oc1ccc(Cl)cc1F)c1ccc(S(=O)(=O)C2CC2)cc1 (centres unmarked) = 2.66
O=C(Nc1nc2cccnc2s1)C(OC1CCOCC1)c1ccc(S(=O)(=O)C2CC2)cc1 (single isomer, unassigned; (-)) [Example H10A] = 2.18
O=C(O)Cc1csc(NC(=O)C(Oc2ccc(F)cc2F)c2ccc(S(=O)(=O)C3CCCCC3)cc2)n1 (centres unmarked) = 3.00
N#Cc1ccc(Oc2cnc(NC(=O)C(OC3CCOCC3)c3ccc(S(=O)(=O)C4CC4)cc3)s2)cc1 (centres unmarked) = 2.18
O=C(Nc1cc[nH]n1)C(Oc1ccc(Cl)cc1F)c1ccc(S(=O)(=O)C2CC2)cc1 (centres unmarked) = 3.11

// fetch purified human recombinant GK (Homo sapiens) log10 of EC50 for O=C(Nc1cc[nH]n1)C(Oc1ccc(F)cc1F)c1ccc(S(=O)(=O)C2CCCC2)c(Cl)c1 (centres unmarked) 3.30

Also O=C(Nc1ncc(F)s1)C(Oc1ccc(F)cc1F)c1ccc(S(=O)(=O)C2CC2)cc1 (centres unmarked) ? 2.30

Also O=C(Nc1ncc(Oc2ccc(C(=O)N3CCC3)cc2)s1)C(OC1CCOCC1)c1ccc(S(=O)(=O)C2CC2)cc1 (centres unmarked) ? 2.04

Also COc1cnc(NC(=O)C(Oc2ccc(F)cc2F)c2ccc(S(=O)(=O)C3CC3)cc2)s1 (centres unmarked) ? 1.88

Also CC(=O)Nc1cccc(OC(C(=O)Nc2nc(CC(=O)O)c(Cl)s2)c2ccc(S(=O)(=O)C3CC3)cc2)c1 (centres unmarked) ? 3.83

Also O=C(O)Cc1nc(NC(=O)C(Oc2ccc(F)cc2F)c2ccc(S(=O)(=O)N3CCCCC3)cc2)sc1Cl (single isomer, unassigned; (-)) ? 2.63

Also O=C(Nc1nncs1)C(Oc1ccc(F)cc1F)c1ccc(S(=O)(=O)C2CCCC2)cc1 (centres unmarked) ? 3.10

Also O=C(O)Cc1nc(NC(=O)C(Oc2ccc(F)cc2F)c2ccc(S(=O)(=O)C3CCCC3)cc2)sc1Cl (single isomer, unassigned; (-)) [Example E2] ? 2.57

Also O=C(Nc1nccs1)C(Oc1ccc(F)cc1F)c1ccc(S(=O)(=O)C2CCCC2)cc1 (centres unmarked) ? 2.04

Also Cc1cnc(NC(=O)C(Oc2ccc(Cl)cc2F)c2ccc(S(=O)(=O)C3CC3)cc2)s1 (centres unmarked) ? 2.18

Also O=C(Nc1ncc(Oc2ccc(C(=O)N3CCC3)cc2)s1)C(Oc1ccc(F)cc1F)c1ccc(S(=O)(=O)C2CC2)cc1 (single isomer, unassigned; (+)) ? 2.04
